ASSAYED_SYSTEM: D(2) dopamine receptor (Homo sapiens)
PROTOCOL: Negative allosteric modulator activity at wild type human dopamine D2L receptor expressed in FlpIn CHO […] assessed as ERK1/2 phosphorylation measured as equilibrium dissociation constant after 30 mins
Format: cell-based
RESULT_TYPE: pKb

Reported pKb (D(2) dopamine receptor (Homo sapiens)) for entry N#Cc1ccc2c(c1)CN(CC[C@H]1CC[C@H](NC(=O)[C@H]3CCCN3)CC1)CC2 is 7.34

Reported pKb (D(2) dopamine receptor (Homo sapiens)) for entry N#Cc1ccc2c(c1)CN(CC[C@H]1CC[C@H](NC(=O)c3nc4ccccc4o3)CC1)CC2 is 7.74

Reported pKb (D(2) dopamine receptor (Homo sapiens)) for entry COc1ccccc1N1CCN(CC[C@H]2CC[C@H](NC(=O)c3cc4ccccc4[nH]3)CC2)CC1 is 9.59

Reported pKb (D(2) dopamine receptor (Homo sapiens)) for entry N#Cc1ccc2c(c1)CN(CC[C@H]1CC[C@H](NC(=O)c3cc4ccccc4o3)CC1)CC2 is 7.74

[1] O=C(N[C@H]1CC[C@H](CCN2CCN(c3cccc(Cl)c3Cl)CC2)CC1)c1cc2ccccc2[nH]1
[2] O=C(N[C@H]1CC[C@H](CCN2CCc3ccc(Cl)cc3C2)CC1)c1cc2ccccc2[nH]1
-- ask Field: lower recorded pKb (choose 1 or 2 ) // output: label of the selected item
-- reply 2
(2: 5.68, 1: 8.86)

---

ASSAYED_SYSTEM: D(2) dopamine receptor (Homo sapiens) (UniProt P14416)
Sequence (P14416 whole entry): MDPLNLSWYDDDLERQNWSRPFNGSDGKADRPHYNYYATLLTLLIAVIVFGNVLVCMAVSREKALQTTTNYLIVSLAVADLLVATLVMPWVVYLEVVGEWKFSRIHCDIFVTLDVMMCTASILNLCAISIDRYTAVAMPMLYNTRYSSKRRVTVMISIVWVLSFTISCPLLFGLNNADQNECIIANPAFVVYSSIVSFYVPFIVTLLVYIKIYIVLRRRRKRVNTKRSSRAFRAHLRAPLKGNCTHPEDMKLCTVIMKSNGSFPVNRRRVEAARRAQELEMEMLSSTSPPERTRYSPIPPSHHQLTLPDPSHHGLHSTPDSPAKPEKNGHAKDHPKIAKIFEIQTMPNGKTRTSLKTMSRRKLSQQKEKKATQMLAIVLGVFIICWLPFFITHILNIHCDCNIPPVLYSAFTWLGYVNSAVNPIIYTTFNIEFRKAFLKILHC
PROTOCOL: Displacement of [3H]raclopride from wild type human dopamine D2L receptor expressed in FlpIn CHO cell membrane assessed as equilibrium dissociation constant after 3 hrs by MicroBeta counting analysis
Type: cell membranes
RESULT_TYPE: pKb

GET /value?item= O=C(N[C@H]1CC[C@H](CCN2CCCc3ccccc3C2)CC1)c1cc2ccccc2[nH]1 &field=pKb returns 5.6

GET /value?item= COc1ccccc1N1CCN(CC[C@H]2CC[C@H](NC(=O)c3cc4ccccc4[nH]3)CC2)CC1 &field=pKb returns 8.41

GET /value?item= O=C(N[C@H]1CC[C@H](CCN2CCc3sccc3C2)CC1)c1cc2ccccc2[nH]1 &field=pKb returns 5.65

GET /value?item= N#Cc1ccc2c(c1)CN(CCCCCNC(=O)c1cc3ccccc3[nH]1)CC2 &field=pKb returns 6.32

GET /value?item= N#Cc1ccc2c(c1)CN(CC[C@H]1CC[C@H](NC(=O)[C@H]3CCCN3)CC1)CC2 &field=pKb returns 6.74

GET /value?item= O=C(N[C@H]1CC[C@H](CCN2CCc3ccc(F)cc3C2)CC1)c1cc2ccccc2[nH]1 &field=pKb returns 6.61

GET /value?item= N#Cc1ccc2c(c1)CN(CC[C@H]1CC[C@H](NC(=O)[C@@H]3CCCN3)CC1)CC2 &field=pKb returns 7.63

GET /value?item= O=C(N[C@H]1CC[C@H](CCN2CCN(c3cccc(Cl)c3Cl)CC2)CC1)c1cc2ccccc2[nH]1 &field=pKb returns 8.28

GET /value?item= N#Cc1ccc2c(c1)CN(CCCNC(=O)c1cc3ccccc3[nH]1)CC2 &field=pKb returns 6.43

GET /value?item= N#Cc1ccc2c(c1)CN(CCCCCCNC(=O)c1cc3ccccc3[nH]1)CC2 &field=pKb returns 6.57

GET /value?item= N#Cc1ccc2c(c1)CN(CC[C@H]1CC[C@H](NC(=O)c3ccc[nH]3)CC1)CC2 &field=pKb returns 7.24

GET /value?item= N#Cc1ccc2c(c1)CN(CC[C@H]1CC[C@H](NC(=O)c3nc4ccccc4[nH]3)CC1)CC2 &field=pKb returns 7.09

GET /value?item= N#Cc1ccc2c(c1)CN(CC[C@H]1CC[C@H](NC(=O)c3cc4ccccc4o3)CC1)CC2 &field=pKb returns 6.55

GET /value?item= O=C(N[C@H]1CC[C@H](CCN2CCc3ccccc3C2)CC1)c1cc2ccccc2[nH]1 &field=pKb returns 6.53

---

ASSAYED_SYSTEM: D(2) dopamine receptor (Homo sapiens)
PROTOCOL: Negative allosteric modulator activity at wild type human dopamine D2L receptor expressed in FlpIn CHO […] assessed as ERK1/2 phosphorylation measured as equilibrium dissociation constant after 30 mins
Assay type: cell-based
RESULT_TYPE: Kb (nM)

Sample answers from the record:
GET /value?item= N#Cc1ccc2c(c1)CN(CC[C@H]1CC[C@H](NC(=O)c3cc4ccccc4o3)CC1)CC2 &field=Kb returns 18.2

GET /value?item= N#Cc1ccc2c(c1)CN(CC[C@H]1CC[C@H](NC(=O)c3nc4ccccc4o3)CC1)CC2 &field=Kb returns 18.2

[P] N#Cc1ccc2c(c1)CN(CC[C@H]1CC[C@H](NC(=O)c3ccc[nH]3)CC1)CC2
[Q] N#Cc1ccc2c(c1)CN(CC[C@H]1CC[C@H](NC(=O)c3nc4ccccc4[nH]3)CC1)CC2
-- ask // pick larger Kb from pair: P vs Q // output: label of the selected item
-- reply Q

---

ASSAYED_SYSTEM: D(2) dopamine receptor (Homo sapiens) (UniProt P14416)
PROTOCOL: Displacement of [3H]raclopride from wild type human dopamine D2L receptor expressed in FlpIn CHO cell membrane assessed as equilibrium dissociation constant after 3 hrs by MicroBeta counting analysis
Assay type: cell membranes
RESULT_TYPE: pKb

GET /value?item= N#Cc1ccc2c(c1)CN(CC[C@H]1CC[C@H](NC(=O)c3nc4ccccc4o3)CC1)CC2 &field=pKb returns 6.58

GET /value?item= N#Cc1ccc2c(c1)CN(CC[C@H]1CC[C@H](NC(=O)C3=Cc4ccccc4C3)CC1)CC2 &field=pKb returns 6.82

GET /value?item= CN(C(=O)c1cc2ccccc2[nH]1)[C@H]1CC[C@H](CCN2CCc3ccc(C#N)cc3C2)CC1 &field=pKb returns 6.93

GET /value?item= O=C(N[C@H]1CC[C@H](CCN2CCc3ccc(Cl)cc3C2)CC1)c1cc2ccccc2[nH]1 &field=pKb returns 6.83

GET /value?item= N#Cc1ccc2c(c1)CN(CC[C@H]1CC[C@H](NC(=O)c3cc4cccnc4[nH]3)CC1)CC2 &field=pKb returns 7.34

GET /value?item= O=C(N[C@H]1CC[C@H](CCN2CCc3ccc(C(F)(F)F)cc3C2)CC1)c1cc2ccccc2[nH]1 &field=pKb returns 6.12

GET /value?item= N#Cc1ccc2c(c1)CN(CCCCNC(=O)c1cc3ccccc3[nH]1)CC2 &field=pKb returns 6.8

GET /value?item= O=C(N[C@H]1CC[C@H](CCN2CCc3ccc(Br)cc3C2)CC1)c1cc2ccccc2[nH]1 &field=pKb returns 6.77

GET /value?item= Cn1c(C(=O)N[C@H]2CC[C@H](CCN3CCc4ccc(C#N)cc4C3)CC2)cc2ccccc21 &field=pKb returns 6.82

---

ASSAYED_SYSTEM: D(2) dopamine receptor (Homo sapiens) (UniProt P14416)
PROTOCOL: Displacement of [3H]raclopride from wild type human dopamine D2L receptor expressed in FlpIn CHO cell membrane assessed as equilibrium dissociation constant after 3 hrs by MicroBeta counting analysis
Assay type: cell membranes
RESULT_TYPE: Kb (µM)

Sample answers from the record:
GET /value?item= O=C(N[C@H]1CC[C@H](CCN2CCc3ccccc3C2)CC1)c1cc2ccccc2[nH]1 &field=Kb returns 0.295

GET /value?item= CN(C(=O)c1cc2ccccc2[nH]1)[C@H]1CC[C@H](CCN2CCc3ccc(C#N)cc3C2)CC1 &field=Kb returns 0.117

GET /value?item= N#Cc1ccc2c(c1)CN(CCCCNC(=O)c1cc3ccccc3[nH]1)CC2 &field=Kb returns 0.158

[P] Cn1c(C(=O)N[C@H]2CC[C@H](CCN3CCc4ccc(C#N)cc4C3)CC2)cc2ccccc21
[Q] N#Cc1ccc2c(c1)CN(CC[C@H]1CC[C@H](NC(=O)[C@H]3CCCN3)CC1)CC2
-- ask // pick larger Kb from pair: P vs Q // output: label of the selected item
-- reply Q

---

ASSAYED_SYSTEM: D(2) dopamine receptor (Homo sapiens)
PROTOCOL: Displacement of [3H]raclopride from wild type human dopamine D2L receptor expressed in FlpIn CHO cell membrane assessed as equilibrium dissociation constant after 3 hrs by MicroBeta counting analysis
Format: cell membranes
RESULT_TYPE: Kb (nM)

Sample answers from the record:
GET /value?item= N#Cc1ccc2c(c1)CN(CC[C@H]1CC[C@H](NC(=O)c3cc4ccccc4o3)CC1)CC2 &field=Kb returns 282

GET /value?item= N#Cc1ccc2c(c1)CN(CC[C@H]1CC[C@H](NC(=O)[C@@H]3CCCN3)CC1)CC2 &field=Kb returns 23.4

GET /value?item= N#Cc1ccc2c(c1)CN(CCCCCCNC(=O)c1cc3ccccc3[nH]1)CC2 &field=Kb returns 269

[a] O=C(N[C@H]1CC[C@H](CCN2CCc3ccc(Br)cc3C2)CC1)c1cc2ccccc2[nH]1
[b] N#Cc1ccc2c(c1)CN(CC[C@H]1CC[C@H](NC(=O)c3nc4ccccc4[nH]3)CC1)CC2
-- ask // pick larger Kb from pair: a vs b // output: label of the selected item
-- reply a

[1] N#Cc1ccc2c(c1)CN(CC[C@H]1CC[C@H](NC(=O)C3=Cc4ccccc4C3)CC1)CC2
[2] N#Cc1ccc2c(c1)CN(CC[C@H]1CC[C@H](NC(=O)c3cc4cccnc4[nH]3)CC1)CC2
-- ask Field: lower recorded Kb (choose 1 or 2 ) // output: label of the selected item
-- reply 2

[P] N#Cc1ccc2c(c1)CN(CCCNC(=O)c1cc3ccccc3[nH]1)CC2
[Q] O=C(N[C@H]1CC[C@H](CCN2CCc3ccc(Cl)cc3C2)CC1)c1cc2ccccc2[nH]1
-- ask Field: lower recorded Kb (choose P or Q ) // output: label of the selected item
-- reply Q

[P] O=C(N[C@H]1CC[C@H](CCN2CCc3ccc(C(F)(F)F)cc3C2)CC1)c1cc2ccccc2[nH]1
[Q] O=C(N[C@H]1CC[C@H](CCN2CCc3ccc(F)cc3C2)CC1)c1cc2ccccc2[nH]1
[R] O=C(N[C@H]1CC[C@H](CCN2CCN(c3cccc(Cl)c3Cl)CC2)CC1)c1cc2ccccc2[nH]1
[S] COc1ccccc1N1CCN(CC[C@H]2CC[C@H](NC(=O)c3cc4ccccc4[nH]3)CC2)CC1
[T] O=C(N[C@H]1CC[C@H](CCN2CCc3sccc3C2)CC1)c1cc2ccccc2[nH]1
-- ask Arrange items by their Kb values in increasing order. Response field: labels, in requested order.
-- reply S, R, Q, P, T

[A] N#Cc1ccc2c(c1)CN(CC[C@H]1CC[C@H](NC(=O)c3nc4ccccc4o3)CC1)CC2
[B] O=C(N[C@H]1CC[C@H](CCN2CCCc3ccccc3C2)CC1)c1cc2ccccc2[nH]1
-- ask Field: lower recorded Kb (choose A or B ) // output: label of the selected item
-- reply A

[P] N#Cc1ccc2c(c1)CN(CCCCCNC(=O)c1cc3ccccc3[nH]1)CC2
[Q] N#Cc1ccc2c(c1)CN(CC[C@H]1CC[C@H](NC(=O)c3ccc[nH]3)CC1)CC2
-- ask // pick larger Kb from pair: P vs Q // output: label of the selected item
-- reply P
(P: 479 nM, Q: 57.5 nM)

Cited source: ChEMBL document CHEMBL3580546
